# MEASUREMENT_CONDITIONS: human gut metagenome, 24 h, 2 µM; also: call rule not given here
ASSAY_METRIC: Bacterial Biotransformation

Below, each entry is followed by its recorded Bacterial Biotransformation result.
CN(C)CCC=C1c2ccccc2COc2ccccc21 [DOXEPIN] : Compound metabolized
O=P1(N(CCCl)CCCl)NCCCO1 (stereo not drawn) [CYCLOPHOSPHAMIDE ANHYDROUS] : Compound metabolized
CC(C)c1c(CN(C)C(C)Cc2ccccc2)n(C)n(-c2ccccc2)c1=O (stereo not drawn) : Compound metabolized
CCCN1C[C@H](CSC)C[C@@H]2c3cccc4[nH]cc(c34)C[C@H]21.CS(=O)(=O)O [PERGOLIDE MESYLATE] : Compound NOT metabolized
COCCCC/C(=N\OCCN)c1ccc(C(F)(F)F)cc1.O=C(O)/C=C\C(=O)O [FLUVOXAMINE MALEATE] : Compound NOT metabolized
CCCN(CCC)CCc1cccc2c1CC(=O)N2 : Compound metabolized
CC(C)(C)NC(=O)[C@H]1CC[C@H]2[C@@H]3CC[C@H]4NC(=O)C=C[C@]4(C)[C@H]3CC[C@]12C [FINASTERIDE] : Compound metabolized

In the following, a different compound is considered.
Request: Could you share which Bacterial Biotransformation value was measured for N=C(N)NC(=O)Cc1c(Cl)cccc1Cl ?
Response: Compound NOT metabolized

* * *

# ASSAY_INFO: The drug is tested on Z-021 corresponding to metagenome with ENA study accession number: PRJEB37062 and ENA sample accession number: ERS12561820 for biotransformation under anaerobic condition. The drug concentrations were measured over 9 timepoints collected between 0 and 24 hours of incubation by liquid-chromatography-coupled mass spectrometry (LC–MS)
# MEASUREMENT_CONDITIONS: 2 µM
ASSAY_METRIC: Bacterial Biotransformation

Would you please look over these solved cases?
c1ccc2[nH]c(-c3cscn3)nc2c1 [THIABENDAZOLE] : Compound NOT metabolized
CC(=O)OCC(CCn1cnc2cnc(N)nc21)COC(C)=O [FAMCICLOVIR] : Compound NOT metabolized
O=C(O)c1cc(/N=N/c2ccc(S(=O)(=O)Nc3ccccn3)cc2)ccc1O [SULFASALAZINE] : Compound metabolized
Nc1nc(NC2CC2)c2ncn([C@H]3C=C[C@@H](CO)C3)c2n1.Nc1nc(NC2CC2)c2ncn([C@H]3C=C[C@@H](CO)C3)c2n1.O=S(=O)(O)O [ABACAVIR SULFATE] : Compound NOT metabolized
CC(C)(C)NCC(O)COc1cccc2c1CC(O)C(O)C2 (stereo not given) [NADOLOL] : Compound NOT metabolized

Query molecule follows.
Request: Please look up its Bacterial Biotransformation: CC(N)C12CC3CC(CC(C3)C1)C2 (stereo not given) [RIMANTADINE]
Response: Compound NOT metabolized

* * *

# MEASUREMENT_CONDITIONS: human gut metagenome, 24 h, 2 µM
ASSAY_METRIC: Bacterial Biotransformation

Completed entries (count: 6):
CC(C)(C)NCC(O)COc1cccc2c1CC(O)C(O)C2 (configuration not stated) : Compound NOT metabolized
CCN(CC)CCNC(=O)c1cc(S(C)(=O)=O)ccc1OC [TIAPRIDE] : Compound NOT metabolized
N#Cc1ccc2[nH]cc(CCCCN3CCN(c4ccc5oc(C(N)=O)cc5c4)CC3)c2c1 : Compound metabolized
CCc1cccc2c3c([nH]c12)C(CC)(CC(=O)O)OCC3 (configuration not stated) : Compound metabolized
Nc1nc(NC2CC2)c2ncn([C@H]3C=C[C@@H](CO)C3)c2n1.Nc1nc(NC2CC2)c2ncn([C@H]3C=C[C@@H](CO)C3)c2n1.O=S(=O)(O)O [ABACAVIR SULFATE] : Compound NOT metabolized
O=C(O)CCC(=O)O.O=C(O[C@H]1CN2CCC1CC2)N1CCc2ccccc2[C@@H]1c1ccccc1 [SOLIFENACIN SUCCINATE] : Compound NOT metabolized

Request: Entry Clc1cccc(Cl)c1N=C1NCCN1 has what Bacterial Biotransformation?
Response: Compound NOT metabolized

* * *

# ASSAY_INFO: The drug is tested on Z-011 corresponding to mouse gut metagenome with ENA study accession number: PRJEB37062 and ENA sample accession number: ERS12561811 for biotransformation under anaerobic condition. The drug concentrations were measured over 9 timepoints collected between 0 and 24 hours of incubation by liquid-chromatography-coupled mass spectrometry (LC–MS)
# MEASUREMENT_CONDITIONS: 2 µM
ASSAY_METRIC: Bacterial Biotransformation

Solved cases (4 shown):
CN(C)CCC=C1c2ccccc2COc2ccccc21 [DOXEPIN] : Compound NOT metabolized
CC(C)(C)NC(=O)[C@H]1CC[C@H]2[C@@H]3CC[C@H]4NC(=O)C=C[C@]4(C)[C@H]3CC[C@]12C [FINASTERIDE] : Compound metabolized
Nc1nnc(-c2cccc(Cl)c2Cl)c(N)n1 : Compound NOT metabolized
CC12CC3CC(C)(C1)CC(N)(C3)C2 [MEMANTINE] : Compound NOT metabolized

# evaluate next
Request: Look up Bacterial Biotransformation for this compound: CC(=O)OCC(=O)NCCCOc1cccc(CN2CCCCC2)c1 [ROXATIDINE ACETATE]
Response: Compound metabolized

* * *

# MEASUREMENT_CONDITIONS: human gut metagenome, 24 h, 2 µM
ASSAY_METRIC: Bacterial Biotransformation

Worked examples follow.
CC(C)NCC(O)COc1ccc(CC(N)=O)cc1 (centres undefined) : Compound NOT metabolized
COc1ccc2cc([C@H](C)C(=O)O)ccc2c1 : Compound metabolized
O=P1(N(CCCl)CCCl)NCCCO1 (centres undefined) [CYCLOPHOSPHAMIDE ANHYDROUS] : Compound metabolized
CC(C)c1c(CN(C)C(C)Cc2ccccc2)n(C)n(-c2ccccc2)c1=O (centres undefined) : Compound metabolized
COc1ccc2c(c1)c(CC(=O)O)c(C)n2C(=O)c1ccc(Cl)cc1 : Compound metabolized
CC1=C(CC(=O)O)c2cc(F)ccc2/C1=C\c1ccc([S+](C)[O-])cc1 (centres undefined) : Compound metabolized
CN1CCN2c3ccccc3Cc3ccccc3C2C1 (centres undefined) : Compound metabolized
COc1ccc(C(CN(C)C)C2(O)CCCCC2)cc1 (centres undefined) : Compound NOT metabolized
Nc1nnc(-c2cccc(Cl)c2Cl)c(N)n1 : Compound metabolized
O=C1CC2(CCCC2)CC(=O)N1CCCCN1CCN(c2ncccn2)CC1 : Compound metabolized

Request: Entry CN(C/C=C/C#CC(C)(C)C)Cc1cccc2ccccc12 has what Bacterial Biotransformation?
Response: Compound NOT metabolized

Request: Another compound to check: CCS(=O)(=O)CCn1c([N+](=O)[O-])cnc1C
Response: Compound metabolized

Request: And the next one, CN1[C@@H]2CC[C@H]1C[C@@H](OC(=O)c1c[nH]c3ccccc13)C2 ?
Response: Compound NOT metabolized

Request: Moving on to the next compound: CCCC(C)(COC(N)=O)COC(=O)NC(C)C (centres undefined)
Response: Compound NOT metabolized

Request: What do you have for C[C@@H](c1ncncc1F)[C@](O)(Cn1cncn1)c1ccc(F)cc1F ?
Response: Compound metabolized

Request: Same read-out for CC1Cc2ccccc2N1NC(=O)c1ccc(Cl)c(S(N)(=O)=O)c1 (centres undefined) [INDAPAMIDE] ?
Response: Compound NOT metabolized

Request: Next compound up: Cc1cc2c(s1)Nc1ccccc1N=C2N1CCN(C)CC1
Response: Compound NOT metabolized

Request: Can you check CC(C)(C)NCC(O)c1cc(Cl)c(N)c(Cl)c1 (centres undefined) next?
Response: Compound NOT metabolized

Request: Field entry: CC[C@@]1(O)C(=O)OCc2c1cc1n(c2=O)Cc2cc3c(CN(C)C)c(O)ccc3nc2-1
Response: Compound NOT metabolized

Request: Follow-up entry: CN(C)CCOC(C)(c1ccccc1)c1ccccn1.O=C(O)CCC(=O)O (centres undefined) [DOXYLAMINE SUCCINATE]
Response: Compound NOT metabolized

Request: Can you check Cc1cc(C)cc(OCC2CNC(=O)O2)c1 (centres undefined) next?
Response: Compound metabolized

Request: And the next one, CCN(CC)CCNC(=O)c1cc(S(C)(=O)=O)ccc1OC [TIAPRIDE] ?
Response: Compound metabolized

Request: Let us now turn to CCN(CC)C(=O)C1(c2ccccc2)CC1CN (centres undefined)
Response: Compound NOT metabolized

Request: Proceed to CCN1CCCC1CNC(=O)c1cc(S(=O)(=O)CC)c(N)cc1OC (centres undefined) [AMISULPRIDE]
Response: Compound metabolized

* * *

# ASSAY_INFO: The drug is tested on Z-003 corresponding to pig gut metagenome with ENA study accession number: PRJEB37062 and ENA sample accession number: ERS12561803 for biotransformation under anaerobic condition. The drug concentrations were measured over 9 timepoints collected between 0 and 24 hours of incubation by liquid-chromatography-coupled mass spectrometry (LC–MS)
# MEASUREMENT_CONDITIONS: 2 µM
ASSAY_METRIC: Bacterial Biotransformation

CCN(CC)CCNC(=O)c1cc(S(C)(=O)=O)ccc1OC [TIAPRIDE] : Compound metabolized
COc1ccc2c(c1)c(CC(=O)O)c(C)n2C(=O)c1ccc(Cl)cc1 [INDOMETHACIN] : Compound NOT metabolized
Nc1nc(NC2CC2)c2ncn([C@H]3C=C[C@@H](CO)C3)c2n1.Nc1nc(NC2CC2)c2ncn([C@H]3C=C[C@@H](CO)C3)c2n1.O=S(=O)(O)O [ABACAVIR SULFATE] : Compound NOT metabolized
CC(C)(C)NCC(O)c1cc(Cl)c(N)c(Cl)c1 (centres undefined) [CLENBUTEROL] : Compound NOT metabolized
CCOc1ccccc1OCCN[C@H](C)Cc1ccc(OC)c(S(N)(=O)=O)c1.Cl [TAMSULOSIN HYDROCHLORIDE] : Compound metabolized

Request: Which Bacterial Biotransformation reading was recorded for the compound Clc1cccc(Cl)c1N=C1NCCN1 [CLONIDINE] ?
Response: Compound metabolized

Each recorded value in this set is attributed to ChEMBL document CHEMBL5724914.
